- System: MS2 coat protein
- Assay Remarks: apparent KD of MS2 coat protein; designed switch direction (-1 OFF switch, 1 ON switch): -1; higher = weaker reporter binding
- Experimental Setup: input ligand: FMN 200 uM
Recorded apparent KD of MS2 coat protein values for a group of sequences are listed next.
Respond with the bare value in nM.

[Q] Given the sequence CCGCCAUGAGGAUAUCCAUCUGGAUCAGACAAGAUCCUGAUGGAGAAGGGACAUGAGGAUCACCCAUGUUGCGG [Mat - Exclusion 4 - Eli Mod - D55] (Eterna round: R97, puzzle: Exclusion 4) , what is its reported apparent KD of MS2 coat protein?
[A] 60.4

[Q] Do the same for GUAAUUAAUGUAGGAUAUGCAAGGCGAACCUAAGCAGAAGGACAUGUGGAUCACCCAUGUAAACAUGAGGAUCACCCAUGUGCU [salish99_ExNG1_r4_006] (Eterna round: R96, puzzle: Exclusion NG 1) please
[A] 1320

[Q] Do the same for ACAUGAGGAUCACCCAUGUCAGGUUGGUUCUCUCCGGCUGUUGAGGAUAUAGUCCGGUAUCCGCGCUAGAAGGUGAGGGCUGGC [Aenatbe mod 14] (Eterna round: R96, puzzle: Exclusion NG 3) please
[A] 19.6

[Q] Do the same for ACAUUACAUGAGGAUCACCCAUGUGAGGAUAUGGAGCGGUAGUGUCCUGUCGCGUACACCAGAAGGCGCGGGUG [1st #48] (Eterna round: R97, puzzle: Exclusion 1) please
[A] 282

Consider the additional sequence presented here.
[Q] Given the sequence UGAUCUAGCGGAGGAUAUACAUGAGGAUCACCCAUGUAAAUCGCUUUACCGUAGUGAAGCAUCAUGUAGAAGGCCGCUAGAUCU [MOD3 ENG2 3.62 by JL] (Eterna round: R96, puzzle: Exclusion NG 2) , what is its reported apparent KD of MS2 coat protein?
[A] 59.3
